# PROCEDURE DETAILS: chemical genetic growth profiling, strain panel (AID 1159580);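 further: tested at 20 µM; growth read once vehicle control cultures reached saturation at 30 °C; 1 = growth at the plate median or of vehicle wells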
# TEST SETTINGS: S. cerevisiae deletion strains, growth OD, locus YJL095W, strain BCK1 (second series), stronger effect = lower value
The whole screen tested about 5,500 compounds, of which about 2,000 (36%) were called active. Roughly 18% stayed inconclusive and do not appear here. The list shows a part of the results.
Recorded normalized growth, one value per entry.
REPORTED PROPERTY: normalized growth

COMPOUND	READING
O=C(O)[C@H]1/C(=C/CO)O[C@@H]2CC(=O)N21	1
O=C(/C=C/c1ccc(O)cc1)c1ccccc1O	0.202
CC(C)[C@@H]1CC[C@@H](C)CC1=O	0.978
CNC(C)[C@@H]1CC[C@@H](N)[C@@H](OC2[C@@H](N)C[C@@H](N)[C@H](OC3OC[C@](C)(O)[C@H](NC)[C@H]3O)[C@H]2O)O1 (some centres undefined)	0.993
O=C(/C=C/c1ccccc1)c1ccc(O)cc1O	0.0568
OC[C@H]1O[C@@H](Oc2ccc(O)cc2)[C@H](O)[C@@H](O)[C@@H]1O	1
CC1=C(C(=O)O)N2C(=O)[C@@H](NC(=O)[C@@H](N)c3ccc(O)cc3)[C@H]2SC1	1.02
COC(=O)C[C@H]1C(C)(C)[C@@H](OC(C)=O)[C@@H]2CC3=C4CC(=O)O[C@@H](c5ccoc5)[C@]4(C)CCC3[C@@]1(C)C2=O (some centres undefined)	1.01
O=C(/C=C/c1ccccc1)c1ccc(O[C@@H]2O[C@H](CO)[C@@H](O)[C@H](O)[C@H]2O)cc1O	0.944

----------
# PROCEDURE DETAILS: chemical genetic growth profiling, strain panel (AID 1159580);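 further: tested at 20 µM; growth read once vehicle control cultures reached saturation at 30 °C; 1 = growth at the plate median or of vehicle wells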
# TEST SETTINGS: S. cerevisiae deletion strains, growth OD, locus YCR088W, strain abp1
Hit rate of the full screen: of about 5,500 compounds, about 2,000 (36%) were called active. Roughly 18% stayed inconclusive and do not appear here. No stated cut-off is given here; in the data, active means normalized growth mostly below about 0.91 (no sharp cut-off); inconclusive means no clear call, values can overlap the other calls; inactive means mostly above about 0.92. This is one part of the list.
Classes used: yes (1) = active, no (0) = inactive

COMPOUND	CLASS
Oc1cc2c(cc1O)C(c1ccccc1)CNCC2 (stereo unspecified)	no (0)
O=C(O)c1cc(=O)c2ccccc2[nH]1	no (0)
O=C(O)c1cccnc1C(=O)O	no (0)
O=c1c(O)c(-c2ccccc2)oc2cc(O)ccc12	no (0)
CNC(=O)Oc1ccccc1OC(C)C	no (0)
CNC(C)[C@@H]1CC[C@@H](N)[C@@H](OC2[C@@H](N)C[C@@H](N)[C@H](OC3OC[C@](C)(O)[C@H](NC)[C@H]3O)[C@H]2O)O1 (stereo partly specified)	no (0)
CC[C@H]1OC(=O)[C@H](C)[C@@H](O[C@H]2C[C@@](C)(OC)[C@@H](O)[C@H](C)O2)[C@H](C)[C@@H](O[C@@H]2O[C@H](C)C[C@H](N(C)C)[C@H]2O)[C@](C)(O)C[C@@H](C)/C(=N/OCOCCOC)[C@H](C)[C@@H](O)[C@]1(C)O	no (0)
Oc1cccc2cccnc12	yes (1)
O=C(c1ccccc1)c1ccc2n1CCC2C(=O)O (stereo unspecified)	no (0)
CCCc1ncc(C[n+]2ccccc2C)c(N)n1	no (0)
O=c1c(O)c(-c2ccccc2)oc2ccccc12	yes (1)
